# Target of assay: Interleukin-8 receptors, CXCR1/CXCR2 (Homo sapiens, UniProt P25025+P25024)
# Protocol: Inhibition against GRO-alpha driven human neutrophil chemotaxis
# Assay type: functional
Binarize IC50 at 700 nM; below is yes (1), at or above is no (0).

# Chemical structure, Target of assay, Discrete label
data = [
    ("CC(C)CCOC(=O)COc1ccc(C(=O)Nc2ccc(F)cc2)cn1", "Interleukin-8 receptors, CXCR1/CXCR2 (Homo sapiens, UniProt P25025+P25024)", "yes (1)"),
    ("COC(=O)CSc1ccc(C(=O)Nc2ccc(F)cc2)cn1", "Interleukin-8 receptors, CXCR1/CXCR2 (Homo sapiens, UniProt P25025+P25024)", "yes (1)"),
]

Does this molecule meet the criterion IC50 < 700 nM? O=C(COc1ccc(C(=O)Nc2ccc(F)cc2)cn1)NC1CCCC1
no (0)

Does this molecule meet the criterion IC50 < 700 nM? O=C(COc1ccc(C(=O)Nc2ccc(F)cc2)cn1)OC1CCCCC1
yes (1)

Does this molecule meet the criterion IC50 < 700 nM? O=C(COc1ccc(C(=O)Nc2ccc(F)cc2)cn1)OCc1cccc(F)c1
yes (1)

Does this molecule meet the criterion IC50 < 700 nM? CN(C(=O)COc1ccc(C(=O)Nc2ccc(F)cc2)cn1)c1ccccc1
no (0)

Does this molecule meet the criterion IC50 < 700 nM? CCOC(=O)COc1ccc(C(=O)Nc2ccc(F)cc2)cn1
yes (1)

* * *

# Target of assay: C-X-C chemokine receptor type 2 (Homo sapiens)
# Sequence (P25025 whole entry): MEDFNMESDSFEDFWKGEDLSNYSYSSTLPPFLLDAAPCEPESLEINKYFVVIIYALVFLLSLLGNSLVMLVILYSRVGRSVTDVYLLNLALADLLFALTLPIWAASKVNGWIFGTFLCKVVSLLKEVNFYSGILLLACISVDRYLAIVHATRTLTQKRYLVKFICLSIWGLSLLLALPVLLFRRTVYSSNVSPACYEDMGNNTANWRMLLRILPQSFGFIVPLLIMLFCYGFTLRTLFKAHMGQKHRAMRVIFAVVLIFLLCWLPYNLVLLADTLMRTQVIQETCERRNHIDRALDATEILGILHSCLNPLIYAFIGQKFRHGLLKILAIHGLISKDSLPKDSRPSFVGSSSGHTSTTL
# Protocol: Displacement of [125I]IL-8 from CHO cell membranes expressing human […] chemokine receptor 2
Quantity name: pIC50
The value called pIC50 is obtained by taking minus log10 of the concentration in mol/L.

Check C-X-C chemokine receptor type 2 (Homo sapiens) data and give pIC50 for COC(=O)CSc1ccc(C(=O)Nc2ccc(F)cc2)cn1 .
7.49

* * *

// values below are reported IC50
# Target of assay: Interleukin-8 receptors, CXCR1/CXCR2 (Homo sapiens, UniProt P25025+P25024)
# Protocol: Inhibition against GRO-alpha driven human neutrophil chemotaxis
# Assay type: functional
Respond with the bare value in nM.

Example entries and their recorded answers appear below.
# Chemical structure, IC50 / nM
data = [
    ("COC(=O)CCSc1ccc(C(=O)Nc2ccc(F)cc2)cn1", 760),
    ("COC(=O)COc1ccc(C(=O)Nc2ccc(F)cc2)cn1", 110),
]

Check Interleukin-8 receptors, CXCR1/CXCR2 (Homo sapiens, UniProt P25025+P25024) data and give IC50 for O=C(O)CCCSc1ccc(C(=O)Nc2ccc(F)cc2)cn1 .
5100

Check Interleukin-8 receptors, CXCR1/CXCR2 (Homo sapiens, UniProt P25025+P25024) data and give IC50 for O=C(CSc1ccc(C(=O)Nc2ccc(F)cc2)cn1)OCc1ccc(Br)cc1 .
83

Check Interleukin-8 receptors, CXCR1/CXCR2 (Homo sapiens, UniProt P25025+P25024) data and give IC50 for O=C(CSc1ccc(C(=O)Nc2ccc(F)cc2)cn1)OCc1cccc(F)c1 .
43

Check Interleukin-8 receptors, CXCR1/CXCR2 (Homo sapiens, UniProt P25025+P25024) data and give IC50 for O=C(COc1ccc(C(=O)Nc2ccc(F)cc2)cn1)Oc1ccccc1 .
410

Check Interleukin-8 receptors, CXCR1/CXCR2 (Homo sapiens, UniProt P25025+P25024) data and give IC50 for O=C(COc1ccc(C(=O)Nc2ccc(F)cc2)cn1)Nc1cccnc1 .
220

Check Interleukin-8 receptors, CXCR1/CXCR2 (Homo sapiens, UniProt P25025+P25024) data and give IC50 for CCCOC(=O)CSc1ccc(C(=O)Nc2ccc(F)cc2)cn1 .
46

Check Interleukin-8 receptors, CXCR1/CXCR2 (Homo sapiens, UniProt P25025+P25024) data and give IC50 for COC(=O)COc1ccc(NC(=O)c2ccc(F)cc2)cn1 .
360
